Target: T1, Human RNF43 extracellular domain (amino acids 1-190) with a Flag tag on its C terminus (human, UniProt Q68DV7 24-190)
T1 construct: also called recombinant human RNF43; human RNF43 ECD
T1 sequence: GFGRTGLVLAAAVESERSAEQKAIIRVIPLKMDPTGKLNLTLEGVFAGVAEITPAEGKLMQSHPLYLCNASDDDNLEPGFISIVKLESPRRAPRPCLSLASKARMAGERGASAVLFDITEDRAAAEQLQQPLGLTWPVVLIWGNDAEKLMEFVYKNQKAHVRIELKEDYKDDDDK
Assay: SPR, Biacore T200, antibody captured by anti-human Fc, RNF43 as analyte, pH 7.4, 25 C
Description: The affinity of the anti-RNF43 monospecific antibodies towards human RNF43 at pH 7.4 was determined at 25 degrees C. using the Biacore T200 instrument (GE Healthcare). Anti-human Fc (GE Healthcare) was immobilized onto all flow cells of a CM4 sensor chip using an amine coupling kit (GE Healthcare). […] Binding affinity was determined by processing and fitting the data to a 1:1 binding model using the Biacore T200 Evaluation software, version 2.0 (GE Healthcare).
The binders listed here are annotated with their Kd.
Give the value in nM but do not write nM after it.

RNN0191kk (antibody, human IgG1, kappa, N297A, V domains shown, Rabbit variable regions recombined with BS03aHis heavy-chain constant region and hk0MC light-chain constant region; also called anti-RNF43 monospecific antibody) VH: QSLEESGGRLVTPGGSLTLTCTASGFSLSSYAIGWVRQAPGKGLEYVGIIERNDKTAYASWAKGRFTISRTSTTVDLKMTSLTTEDTATYFCARGYLDNSPLWGPGTLVTVSS VL: AIEMTQTPASVSAAVGGTVTINCQSSQSVGDNIWLGWYQQKPGQPPKLLIRYASTLASGVPSRFKGSGSGTQFTLTISDLECDDAATYYCAGAYNGLIYSFGGGTKVEIKR    71.1
RNN0198oo (antibody, human IgG1, kappa, N297A, V domains shown, Rabbit variable regions recombined with BS03aHis heavy-chain constant region and hk0MC light-chain constant region; also called anti-RNF43 monospecific antibody) VH: QEQLVESGGGLVQPEGSLTLTCKASGLDFSSSYWMCWVRQAPGKGLEWIGCIYTGSSGSTYYASWAKGRFTISKTSSTTVTLQMTSLTAADTATYFCARTGSRYWNYFELWGPGTLVTVSS VL: DVVMTQTPPSVSAAVGGTVTIKCQASQSIYRGLAWYQQKPGQPPNLLIYSASTLASGVPSRFSGSGSGTEYTLTISDLECADAATYYCQSYYYSSSNGWPFGGGTKVEIKR    1.11
RNN0275kk (antibody, human IgG1, kappa, N297A, V domains shown, Rabbit variable regions recombined with BS03aHis heavy-chain constant region and hk0MC light-chain constant region; also called anti-RNF43 monospecific antibody) VH: QSVEESGGRLVTPGTPLTLTCTVSGWTINSYHMCWVRQAPGEGLEWIATITTGGVTFYANWARGRFTISKTSTTVDLKMTSLTAADTATYFCVRGPDYTYFDLWGPGTLVTVSS VL: NVVLTQTPSSVSAAVGGTVTIKCQASQSISDTLAWYQQKPGQPPKLLIYYASDLASGVPSRFSGSGSGTEFTLTINDLECADAATYYCQSYVYSNGIDNTFGGGTKVEIKR    65.6

With those in mind, consider the next binder.
Fill in the blank: the reported Kd of RNN0276oo (antibody, human IgG1, kappa, N297A, V domains shown, Rabbit variable regions recombined with BS03aHis heavy-chain constant region and hk0MC light-chain constant region; also called anti-RNF43 monospecific antibody) VH: QSVEESGGRLVTPGTPLTLTCTVSGFSLSSYAMNWVRQAPGKGLEWIGVIGSSGRTYYASWAKGRFTSSKTSTTVVLKITSPTTEDTATYFCARGPYDSYGDGGVTGDLWGPGTLVTVSS VL: AQVLTQTPSPVSAAVGGTVTINCQSSQSVYNNNNLAWYQQKPGQPPKLLIYRASTLASGVPSRFKGSGSGTQFTLTISGVQCEDAATYYCQGGYDCSSADCDTFGGGTKVEIKR is ____. 117
